Entries annotated with measured z-score
assay.text: survival rescue of mitochondrial mutant cells in low glucose, primary screen, MELAS cybrids, Rieske KO mouse fibroblasts, CellTiter-Glo (AID 1508586);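 note: z relative to plate mean and SD of compound and empty wells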
details: MELAS cybrid survival, CellTiter-Glo 48 h, stronger effect = higher value
The source made the active and inactive calls.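 Rule for the calls: active = mean z-score across replicates of 1.96 or higher in either the MELAS or the Rieske mutant cell line; inactive = the rest.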

[
  {
    "smiles.string": "O=C1NC(=O)C(c2ccc(Cl)cc2)=C1Nc1ccc(Cl)c(C(=O)O)c1",
    "value.reported": "-0.525 (inactive)"
  },
  {
    "smiles.string": "COc1cc2c(cc1Nc1nc(Nc3cccc(F)c3C(N)=O)c3cc[nH]c3n1)N(C(=O)CN1CCN(C(C)C)CC1)CC2",
    "value.reported": "-0.91 (inactive)"
  }
]

Let's switch to this compound now.
Looking for the measured z-score of COc1ccc(-c2nn3ncccc3c2-c2ccnc(Nc3ccc(F)c(F)c3)n2)cc1 , can you help? 1.01 (inactive)

---

assay.text: stimulators of nuclear beta-catenin in C2C12, primary screen, imaging, WNT3A-conditioned medium, mouse C2C12, NPC library (AID 1117326); note: reference of the scale not given here
details: at 10 µM, stronger effect = higher value
outcome.measure: nuclear beta-catenin stimulation (%)
Your answer is read as %, so omit the unit and give the number.

[
  {
    "compound": "c1ccc2c(CC3=NCCN3)cccc2c1",
    "nuclear beta-catenin stimulation, %": 0.4
  }
]

Looking for the measured nuclear beta-catenin stimulation of CCCCOCCOC(=O)c1cccnc1 , can you help? 1.3

Similarly, CC(C)C(=O)OCc1cccc(OC(=O)[C@@H]2N3C(=O)[C@@H](NC(=O)Cc4ccccc4)[C@H]3SC2(C)C)c1 ? 0.9

Similarly, CCCC(=O)OC[C@@H](OC(=O)CCC)[C@@H](OC(=O)CCC)[C@H](Cn1c2nc(=O)[nH]c(=O)c-2nc2cc(C)c(C)cc21)OC(=O)CCC ? -0.4

Similarly, O=S(=O)(O)c1ccc2c(N=Nc3ccc(S(=O)(=O)O)c4ccccc34)c(O)c(S(=O)(=O)O)cc2c1 ? 0.7

Similarly, CC(C)[C@H](N)C(=O)O ? -0.1

Similarly, CC(=O)Nc1ccc(/C=N/NC(N)=S)cc1 ? 0.3

---

assay.text: suppressors of polyglutamine aggregation in yeast, 75Q-TubH (AID 1616)
details: S. cerevisiae 75Q-TubH polyglutamine aggregation suppression; stronger effect = higher value
Label fulfilled when aggregation suppression score is at or above 1; anything below gets not fulfilled.

Some solved cases for reference:
[
  {
    "molecule": "C=C(CC)C(=O)c1ccc(OCC(=O)O)c(Cl)c1Cl",
    "class.name": "not fulfilled"
  },
  {
    "molecule": "CCCCNC(=O)NS(=O)(=O)c1ccc(C)cc1",
    "class.name": "not fulfilled"
  },
  {
    "molecule": "CN(C)CCOC(c1ccc(Cl)cc1)c1ccccn1 (stereo not given)",
    "class.name": "fulfilled"
  },
  {
    "molecule": "Cc1onc(-c2c(Cl)cccc2Cl)c1C(=O)N[C@@H]1C(=O)N2[C@@H]1SC(C)(C)[C@@H]2C(=O)O",
    "class.name": "fulfilled"
  },
  {
    "molecule": "COc1ccc(Cl)cc1C(=O)NCCc1ccc(S(=O)(=O)NC(=O)NC2CCCCC2)cc1",
    "class.name": "fulfilled"
  }
]

Quick check: does Cn1cnc([N+](=O)[O-])c1Sc1ncnc2nc[nH]c12 have aggregation suppression score greater than or equal to 1? fulfilled

Similarly, O=C(C1CCCCC1)N1CC(=O)N2CCc3ccccc3C2C1 (stereo not given) ? not fulfilled

Similarly, CCN(CC)CCCC(C)Nc1c2ccc(Cl)cc2nc2ccc(OC)cc12 (stereo not given) ? fulfilled

Similarly, COC(=O)Nc1nc2ccc(C(=O)c3ccccc3)cc2[nH]1 ? not fulfilled

Similarly, CC1COc2c(N3CCN(C)CC3)c(F)cc3c(=O)c(C(=O)O)cn1c23 (stereo not given) ? fulfilled

Similarly, NS(=O)(=O)c1cc2c(cc1Cl)NCNS2(=O)=O ? not fulfilled
